target: purified DHFR of strain Sp1/1 of Streptococcus pneumoniae (Streptococcus pneumoniae serotype 4); type: biochemical; settings: Table 2; IC50 against purified DHFR of strain Sp1/1
Sequence (Q54801 whole entry I100L, form open): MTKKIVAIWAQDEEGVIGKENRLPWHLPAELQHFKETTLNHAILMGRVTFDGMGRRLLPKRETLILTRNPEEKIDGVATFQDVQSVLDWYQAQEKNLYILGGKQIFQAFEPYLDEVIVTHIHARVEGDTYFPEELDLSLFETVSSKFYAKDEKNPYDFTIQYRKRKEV

{"Compound": "CCOc1cc(Cc2cnc(N)nc2N)cc(OS(=O)(=O)N(C)C)c1-c1ccc(CN2CCOCC2)c(F)c1 [Example 64-b]", "IC50 (µM)": 0.027}
{"Compound": "CCOc1cc(Cc2cnc(N)nc2N)cc(OCC2CC2)c1-c1ccc2c(c1)OCO2 [Example 10-b]", "IC50 (µM)": 0.04}
{"Compound": "CCOc1cc(Cc2cnc(N)nc2N)cc(OCC)c1-c1ccc(O)c(C)c1 [Example 02-s]", "IC50 (µM)": 0.083}
{"Compound": "CCOc1cc(Cc2cnc(N)nc2N)cc(OCCC2CCOCC2)c1-c1cccc(N)c1 [Example 07-j]", "IC50 (µM)": 0.029}
{"Compound": "CCOc1cc(Cc2cnc(N)nc2N)cc(O[C@@H]2CCC[C@H]2CC#N)c1-c1ccc(O)cc1 (racemic) [Example 08-u]", "IC50 (µM)": 0.15}
{"Compound": "CCOc1cc(Cc2cnc(N)nc2N)cc(OS(C)(=O)=O)c1-c1ccc(OC)cc1 [Example 16-a]", "IC50 (µM)": 0.021}
{"Compound": "CCOc1cc(Cc2cnc(N)nc2N)cc(OCC)c1-c1cc(N)cc(F)c1 [Example 04-t]", "IC50 (µM)": 0.031}
{"Compound": "CCOc1cc(Cc2cnc(N)nc2N)cc(OCCC2CCCCO2)c1-c1ccc(O)cc1 (racemic) [Example 08-t]", "IC50 (µM)": 0.025}

* * *

tested on: Streptococcus pneumoniae 1/1; assay: MIC against Streptococcus pneumoniae 1/1; assay type: cell-based; details: Table 2; Streptococcus pneumoniae 1/1, trimethoprim- and penicillin-resistant, serotype 6; clinical isolate; read-out: MIC Sp1/1
Quick rule for you: MIC under 2 µg/mL gets true (1), anything else gets false (0).

{"Molecule": "CCOc1cc(Cc2cnc(N)nc2N)cc(OS(=O)(=O)C(C)C)c1-c1ccc(C)nc1 [Example 33-g]", "Label Value": "false (0)"}
{"Molecule": "CCOc1cc(Cc2cnc(N)nc2N)cc(OCC)c1-c1cccc(NC(C)=O)c1 [Example 05-c]", "Label Value": "false (0)"}
{"Molecule": "CCOc1cc(Cc2cnc(N)nc2N)cc(OS(=O)(=O)CC2CC2)c1-c1cccc(N)c1 [Example 38-a]", "Label Value": "true (1)"}
{"Molecule": "CCOc1cc(Cc2cnc(N)nc2N)cc(OCC)c1-c1cccc(S(C)(=O)=O)c1 [Example 02-af]", "Label Value": "false (0)"}
{"Molecule": "CCOc1cc(Cc2cnc(N)nc2N)cc(OS(=O)(=O)N2CCCC2)c1-c1cccc(N)c1 [Example 19-c]", "Label Value": "true (1)"}
{"Molecule": "CCOc1cc(Cc2cnc(N)nc2N)cc(OS(=O)(=O)N(CC)CC)c1-c1ccc(O)cc1 [Example 20-h]", "Label Value": "true (1)"}
{"Molecule": "CCOc1cc(Cc2cnc(N)nc2N)cc(OCC2(CC#N)CC2)c1-c1ccc(O)cc1 [Example 08-c]", "Label Value": "false (0)"}
{"Molecule": "CCOc1cc(Cc2cnc(N)nc2N)cc(OCC)c1-c1ccc(N(C)C)cc1 [Example 02-v]", "Label Value": "false (0)"}
{"Molecule": "CCOc1cc(Cc2cnc(N)nc2N)cc(OC(C)C)c1-c1ccc(OC)cc1 [Example 09-f]", "Label Value": "false (0)"}
{"Molecule": "CCOc1cc(Cc2cnc(N)nc2N)cc(OCC(C)(C)CO)c1-c1ccc(O)cc1 [Example 08-p]", "Label Value": "false (0)"}
{"Molecule": "CCOc1cc(Cc2cnc(N)nc2N)cc(OS(=O)(=O)C(C)CC)c1-c1ccc(NCCO)cc1 (centres unmarked) [Example 35-f]", "Label Value": "true (1)"}
{"Molecule": "CCOc1cc(Cc2cnc(N)nc2N)cc(OCC)c1-c1ccc(OS(C)(=O)=O)cc1 [Example 45-]", "Label Value": "false (0)"}
{"Molecule": "CCOc1cc(Cc2cnc(N)nc2N)cc(OCC)c1-c1ccc(O)c(F)c1 [Example 02-ae]", "Label Value": "false (0)"}
{"Molecule": "CCOc1cc(Cc2cnc(N)nc2N)cc(OS(=O)(=O)C2CC2)c1-c1ccc(CN2CCOCC2)s1 [Example 24-]", "Label Value": "true (1)"}
{"Molecule": "CCOc1cc(Cc2cnc(N)nc2N)cc(OCC)c1-c1ccc(CN2CCOCC2)c(F)c1 [Example 04-z]", "Label Value": "false (0)"}
{"Molecule": "CCOc1cc(Cc2cnc(N)nc2N)cc(OS(C)(=O)=O)c1-c1ccc(CN2CCOCC2)c(F)c1 [Example 64-a]", "Label Value": "false (0)"}
{"Molecule": "CCOc1cc(Cc2cnc(N)nc2N)cc(OS(=O)(=O)CC(C)(C)C)c1-c1ccc(OC)c(N)c1 [Example 37-b]", "Label Value": "true (1)"}
{"Molecule": "CCOc1cc(Cc2cnc(N)nc2N)cc(OS(=O)(=O)CC(C)(C)C)c1-c1ccc(O)cc1 [Example 15-h]", "Label Value": "true (1)"}
{"Molecule": "CCOc1cc(Cc2cnc(N)nc2N)cc(OCC)c1-c1ccc(NC)cc1 [Example 04-ab]", "Label Value": "false (0)"}
{"Molecule": "CCOc1cc(Cc2cnc(N)nc2N)cc(OS(=O)(=O)N(C)C)c1-c1ccc(CN(C)CCF)cc1 [Example 66-]", "Label Value": "false (0)"}
{"Molecule": "CCOc1cc(Cc2cnc(N)nc2N)cc(OS(=O)(=O)CC(C)(C)C)c1-c1ccc(N)cc1 [Example 37-c]", "Label Value": "true (1)"}
{"Molecule": "CCOc1cc(Cc2cnc(N)nc2N)cc(OCC)c1-c1ccc(OC)c(OC)c1 [Example 02-l]", "Label Value": "false (0)"}
{"Molecule": "CCOc1cc(Cc2cnc(N)nc2N)cc(OCC2(/C=C/C#N)CC2)c1-c1ccc(O)cc1 [Example 08-d]", "Label Value": "false (0)"}
{"Molecule": "CCOc1cc(Cc2cnc(N)nc2N)cc(OCCc2ccccn2)c1-c1cccc(N)c1 [Example 07-g]", "Label Value": "false (0)"}
{"Molecule": "CCOc1cc(Cc2cnc(N)nc2N)cc(OS(=O)(=O)N(CC)CC)c1-c1ccc(NC)cc1 [Example 26-f]", "Label Value": "true (1)"}
{"Molecule": "CCOc1cc(Cc2cnc(N)nc2N)cc(OCC)c1-c1ccc(NC(C)=O)c(C)c1 [Example 04-e]", "Label Value": "false (0)"}

* * *

target: purified DHFR of strain 157/4696 of Staphylococcus aureus (Staphylococcus aureus, UniProt P13955); assay: biochemical
Sequence (P13955 whole entry): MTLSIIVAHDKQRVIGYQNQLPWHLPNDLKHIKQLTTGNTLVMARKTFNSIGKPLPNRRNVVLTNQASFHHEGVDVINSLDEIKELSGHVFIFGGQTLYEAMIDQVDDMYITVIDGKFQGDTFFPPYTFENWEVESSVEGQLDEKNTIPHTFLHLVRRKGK
pIC50: −log10 of the molar value.

{"Compound": "CCOc1cc(Cc2cnc(N)nc2N)cc(OCC)c1-c1ccc(N2CC(COC)OC2=O)cc1 (racemic) [Example 04-s]", "pIC50": 5.72}
{"Compound": "CCOc1cc(Cc2cnc(N)nc2N)cc(OS(=O)(=O)N(CC)CC)c1-c1ccc(O)cc1 [Example 20-h]", "pIC50": 6.46}
{"Compound": "CCOc1cc(Cc2cnc(N)nc2N)cc(OCC2CC2)c1-c1ccc2c(c1)OCO2 [Example 10-b]", "pIC50": 5.62}
{"Compound": "CCOc1cc(Cc2cnc(N)nc2N)cc(OS(=O)(=O)CC(C)C)c1-c1ccc(N)c(F)c1 [Example 36-b]", "pIC50": 6.64}
{"Compound": "CCOc1cc(Cc2cnc(N)nc2N)cc(OS(C)(=O)=O)c1-c1cccc(N)c1 [Example 14-a]", "pIC50": 6.46}
{"Compound": "CCOc1cc(Cc2cnc(N)nc2N)cc(OCC)c1-c1ccc(N)c(C#N)c1 [Example 04-h]", "pIC50": 6.00}
{"Compound": "CCOc1cc(Cc2cnc(N)nc2N)cc(OCC)c1-c1ccc2cc[nH]c2c1 [Example 02-e]", "pIC50": 6.00}
{"Compound": "CCOc1cc(Cc2cnc(N)nc2N)cc(OS(=O)(=O)CC(C)C)c1-c1ccc(O)cc1 [Example 15-f]", "pIC50": 6.42}

* * *

target: purified DHFR of strain 157/4696 of Staphylococcus aureus (Staphylococcus aureus, UniProt P13955); experiment: biochemical
Quick rule for you: IC50 under 800 nM gets condition met, anything else gets condition not met.

{"Compound": "CCOc1cc(Cc2cnc(N)nc2N)cc(OCC(C)(C)C=CC#N)c1-c1cccc(N)c1", "Label Value": "condition met"}
{"Compound": "CCOc1cc(Cc2cnc(N)nc2N)cc(OS(=O)(=O)CC(C)C)c1-c1ccc(OCCO)cc1", "Label Value": "condition met"}
{"Compound": "CCOc1cc(Cc2cnc(N)nc2N)cc(OS(=O)(=O)N(C)C2CC2)c1-c1ccc(N)c(F)c1", "Label Value": "condition met"}
{"Compound": "CCOc1cc(Cc2cnc(N)nc2N)cc(OS(=O)(=O)CC2CCCO2)c1-c1ccc(N)c(F)c1 (centres unmarked)", "Label Value": "condition met"}
{"Compound": "CCOc1cc(Cc2cnc(N)nc2N)cc(OCC)c1-c1ccc(NC(=O)CN2CCOCC2)cc1", "Label Value": "condition not met"}
{"Compound": "CCOc1cc(Cc2cnc(N)nc2N)cc(OS(=O)(=O)C(C)C)c1-c1ccc(C)nc1", "Label Value": "condition not met"}
{"Compound": "CCOc1cc(Cc2cnc(N)nc2N)cc(OCC)c1-c1cc(C)nc(C)c1", "Label Value": "condition not met"}
